Consider the following variants; for each one, report its protein stability index.
B1: DVL3 (parent)
chain: FCADNPSELPPPMERTGGIGDSRP

variants of: B1; test: protein stability index of a GFP-peptide fusion (GPS, HEK-293T) (PSI 1-6); higher = more stable; settings: c terminus: a fixed tail appended;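 also: lentivirally expressed fusions sorted by FACS into six bins by GFP to DsRed ratio, PSI derived from sequencing read proportions per bin multiplied by bin number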
Numbers only.

Residue change: G18I
Reading: 4.05

Give protein stability index for each listed item.
1. P11M
2. G20Q

4.45
4.79

This collection of values is drawn from the supplement of paper PMC10567573.
